// values below are reported tissue uptake at 1 h
# Measurement Description: Biodistribution of 177Lu-labeled αMSH analogues in mice bearing SK-MEL-1 human melanoma
# Condition Context: male, NRG (NOD.Cg-Rag1tm1Mom Il2rgtm1Wjl/SzJ), mouse, pancreas, total radioactivity

Compound: CCCC[C@H](NC(=O)CN1CCC(NC(=O)[C@H](CCCCNC(=O)CN2CCN(CC(=O)O)CCN(CC(=O)O)CCN(CC(=O)O)CC2)NC(=O)CNC(=O)CCCc2ccc(I)cc2)CC1)C(=O)N[C@H]1CC(=O)NCCCC[C@@H](C(N)=O)N(C)C(=O)[C@H](Cc2c[nH]c3ccccc23)NC(=O)[C@H](CCCNC(=N)N)N(C)C(=O)[C@@H](Cc2ccccc2)NC(=O)[C@H](Cc2c[nH]cn2)NC1=O [^177Lu-labeled CCZ01148, metal not drawn]
tissue uptake at 1 h: 3.09 %ID/g
--
Compound: CCCC[C@H](NC(=O)CN1CCC(NC(=O)[C@H](CCCCNC(=O)CN2CCN(CC(=O)O)CCN(CC(=O)O)CCN(CC(=O)O)CC2)NC(=O)[C@H](CCC(=O)O)NC(=O)CCCc2ccc(I)cc2)CC1)C(=O)N[C@H]1CC(=O)NCCCC[C@@H](C(N)=O)N(C)C(=O)[C@H](Cc2c[nH]c3ccccc23)NC(=O)[C@H](CCCNC(=N)N)N(C)C(=O)[C@@H](Cc2ccccc2)NC(=O)[C@H](Cc2c[nH]cn2)NC1=O [^177Lu-labeled CCZ01118, metal not drawn]
tissue uptake at 1 h: 1.4 %ID/g
--
Compound: CCCC[C@H](NC(=O)CN1CCC(NC(=O)[C@H](CCCCNC(=O)CN2CCN(CC(=O)O)CCN(CC(=O)O)CCN(CC(=O)O)CC2)NC(=O)CNC(=O)CCCc2ccc(-c3ccc(C)cc3)cc2)CC1)C(=O)N[C@H]1CC(=O)NCCCC[C@@H](C(N)=O)N(C)C(=O)[C@H](Cc2c[nH]c3ccccc23)NC(=O)[C@H](CCCNC(=N)N)N(C)C(=O)[C@@H](Cc2ccccc2)NC(=O)[C@H](Cc2c[nH]cn2)NC1=O [^177Lu-labeled CCZ01158, metal not drawn]
tissue uptake at 1 h: 1.87 %ID/g
